Assay: PhoP regulon inhibitors, Salmonella typhi PhoP promoter GFP reporter, confirmatory (AID 1850);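 note: 0% = induced wells with vehicle and 100% = uninduced wells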
Conditions: fluorescence, 4 h, at 50 µM, hits give high values
Among all 310,000 compounds or so, about 1,000 (0.32%) were called active. Only a sample is shown. Potency and affinity values are given separately.
READOUT LABEL: inhibition (%)
Express the result in % but write the number alone.

O=S(=O)(c1ccc(Cl)cc1)N1CCN(Cc2ccc(O)c3ncccc23)CC1	-17.9
COc1ccc2[nH]c(C)c(CCNC(=S)Nc3ccccc3OC)c2c1	-5.5
CC1(CC(=O)N/N=C/c2cc3c(cc2Br)OCO3)OCCO1	5.58
COc1cc(/C=N/N=C(N)N)ccc1OCc1ccccc1Cl	-7.28
CO[C@@]12[C@H](COC(N)=O)C3=C(C(=O)C(C)=C(N)C3=O)N1C[C@@H]1N[C@@H]12	6.71

Lookup: Any idea what inhibition was measured for CC(=O)Nc1cccc(C(=O)OC(C)C(=O)NC2CCCc3ccccc32)c1 (centres undefined) ?
Found: -2.01

Lookup: How about this compound: "CCN1CSC(=S)N(Cc2ccccc2)C1"
Found: -1.16

Lookup: Again, but for "COc1ccc(N=C2SCC(c3ccc([N+](=O)[O-])cc3)=NN2CCO)cc1"
Found: 7.19

###

Assay: PhoP regulon inhibitors, Salmonella typhi PhoP promoter GFP reporter, confirmatory (AID 1850);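 note: 0% = induced wells with vehicle and 100% = uninduced wells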
Settings: fluorescence, 4 h, at 50 µM, hits give high values
About 1,000 (0.32%) of roughly 310,000 compounds were called active. Not all results are given here. Potency and affinity values are given separately.
READOUT LABEL: inhibition (%)
Number in %, nothing else.

Record excerpt, results attached:
COc1cccc(CNCCc2ccccc2)c1OC	15.4
Cc1ccc2c(c1)C1CN(C)CCC1N2S(=O)(=O)c1ccccc1 (stereo not given)	4.23
COc1cccc(CNCCc2cccc(F)c2)c1OC	6.94

Lookup: Item "CCc1ccc(CNCCc2ccc(F)cc2)cc1" has what recorded inhibition?
Found: 7.65

Lookup: Now the same for "COc1ccc(CC(=O)NCC(=O)N/N=C/c2ccc(C)o2)cc1"
Found: -9.36

Lookup: "Cc1c(Br)cc(C(=O)O)c(C)c1C" ?
Found: 7.99

###

Assay: PhoP regulon inhibitors, Salmonella typhi PhoP promoter GFP reporter, confirmatory (AID 1850);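 note: 0% = induced wells with vehicle and 100% = uninduced wells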
Conditions: fluorescence, 4 h, at 50 µM, hits give high values
Among all 310,000 compounds or so, about 1,000 (0.32%) were called active. Not all results are given here. Results with a measured potency or affinity are listed apart.
Listing of recorded inhibition by entry.
Output spec: scalar in %, unitless text.

Previously resolved entries follow.
CCOC(=O)CSc1c(-c2ccc(Cl)cc2)[nH]c2ccccc12	-5.57
O=C(Nc1ccc(Cl)cc1)Nc1nccs1	-2.29
Cc1ccc(NC(=O)CCC(=O)N/N=C/c2ccc([N+](=O)[O-])o2)cc1C	-0.54

Lookup: So what's the measured inhibition for this one? "Nc1nonc1C(=O)N/N=C/c1ccc([N+](=O)[O-])o1"
Found: -4.72

###

Experiment: PhoP regulon inhibitors, Salmonella typhi PhoP promoter GFP reporter, confirmatory (AID 1850);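 note: 0% = induced wells with vehicle and 100% = uninduced wells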
Details: fluorescence, 4 h, at 50 µM, hits give high values
Out of some 310,000 compounds screened, about 1,000 (0.32%) were called active. A selection follows. Potency and affinity values are given separately.
This section presents molecules with their documented inhibition values.

The examples below pair each entry with its known result.
CC(=O)c1ccc(NC(=S)N2CCN(CCO)CC2)cc1	5.45% (inactive)
CC(C)C(CCNCc1ccccn1)c1ccc(Cl)cc1 (stereo not drawn)	-0.74% (inactive)
N=c1n(CCN2CCOCC2)c2ccccc2n1CC(=O)c1ccc(Cl)c(Cl)c1	20.6% (inactive)
CC1=C(C#N)C(c2ccccc2)C2=C(N1)c1ccccc1C2=O (stereo not drawn)	-2.93% (inactive)
Oc1ccccc1CNCC12CC3CC(CC(C3)C1)C2	6.43% (inactive)

Lookup: Form field: reported inhibition of "O=[N+]([O-])c1cccc(-c2nc(-c3ccccn3)no2)c1"
Found: 1.8% (inactive)

Lookup: "O=C(Cn1nc(CNc2ccc(Cl)cc2)[n+]2c1CCCCC2)c1ccccc1" ?
Found: -5.48% (inactive)

Lookup: Request: COc1cc(C2c3c(oc4ccccc4c3=O)C(=O)N2CCN2CCOCC2)cc(OC)c1OC (stereo not drawn)
Found: -13.4% (inactive)

Lookup: Could you do the same for "C/C(=N\NC(=O)c1ccc(F)cc1)c1ccc(NC(=O)Cc2ccccc2)cc1" , please?
Found: -10.7% (inactive)
